System: Bacillus subtilis
PROTOCOL TEXT: cleaved RNA product abundance (RNA/gDNA barcode ratio) relative to median wild-type variant (ratio to wild type); higher = more accumulation of the downstream cleavage product
COND: experiment (reporter, strain, medium): exp 4a: truncated aprE reporter, strain BJT201 with 2% xylose (RNase J1 expressed); cleavage site: cggR-gapA (positions -7 to +36 mutated)
Recorded measurements of cleaved RNA product abundance, one per entry
MEASUREMENT TYPE: cleaved RNA product abundance

                          construct_sequence  result_number
 0  ACAGACGAAGGAGCCGCAAAGAAGTTATTACGGGATGAATAATCCCTTAATATAAATATCTCTCACTTATTTAAA           1.47
 1  ACAGACGAAGGAGCCGCAAAGAAGTTATTAAGGGATGAATAATCCTCAATATAAATATCTCTCACTTATTTAAAG          0.309
 2  ACAGACGAAGGAGCCGCAAAGTAGTTATTAATGGATGAATAATCCCTCAATATAAATATCTCTCACTTATTTAAA          0.166
 3  ACAGACGAAGGAGCCGCAAAGAAGTGATTAAGGGATGAATACTCCCTCAATATAAATATCTCTCACTTATTTAAA          0.354
 4  ACAGACGAAGGAGCCGCAAAGAATTTATTAAGGGATGAATAATACCTCAATATAAATATCTCTCACTTATTTAAA          0.177
 5  ACAGACGAAGGAGCCGCAAAGAATTTATTAAGGGAGGAATAATCCCTCAATATAAATATCTCTCACTTATTTAAA          0.459
 6  ACAGACGAAGGAGCCGCAAAGAAGTTATTAAGGGATGAATCATCCCTAAATATAAATATCTCTCACTTATTTAAA              1
 7  ACAGACGAAGGAGCCGCAAAGAAGTAATTAACGGATGAATAATCCCTGAATATAAATATCTCTCACTTATTTAAA           0.16
 8  ACAGACGAAGGAGCCGCAAAGATGTTATTAAGGGATGAATAATCCCTCAATCTAAATATCTCTCACTTATTTAAA         0.0528
 9  ACAGACGAAGGAGCCGCAAAGAAGTTATTAAAGCATTAATAATCCCTCAATATAAATATCTCTCACTTATTTAAA          0.134
10  ACAGACGAAGGAGCCGCAAAGTAGTTATTAAGAGATGAATAATCCCTCAATATAAATATCTCTCACTTATTTAAA          0.124
11  ACAGACGAAGGAGCCGCAAAGAAGTTATTAAGGGAAGAATAATCCCTCAATATAAAAATCTCTCACTTATTTAAA          0.563
12  ACAGACGAAGGAGCCGCATAGAAGTTATTAAGGGATGAATAATCCCTTAATATAAATATCTCTCACTTATTTAAA          0.448
13  ACAGACGAAGGAGCCGCAAAGAAGTTATTAACGGATGAATAATCCTTCAATATAAATATCTCTCACTTATTTAAA          0.223
14  ACAGACGAAGGAGCCGCAAAGAAGTTATTTAGGAATGAATAATCCCTCAATATAAATATCTCTCACTTATTTAAA          0.127
